- TARGET SYSTEM: FKBP51 (FK1 domain) (Homo sapiens, UniProt Q13451)
- Sequence (Q13451 42-130 limits assumed): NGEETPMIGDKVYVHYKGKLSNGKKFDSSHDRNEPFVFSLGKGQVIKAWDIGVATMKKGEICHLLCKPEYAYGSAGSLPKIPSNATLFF
- ASSAY PROTOCOL: Fluorescence polarization assay, binding affinity to FKBP51 (FK1 domain)
- EXPERIMENTAL SETUP: fluorescence polarization assay using tracer 2b; read-out: FKBP51FK1 IC50
- Protocol: The binding affinites for FKBPs were determined as described in Kozany et al., ChemBioChem 10, 8, 2009, 1402-1410 using tracer 2b. Table 1: Chemical compounds according to formula (I) used in fluorescence polarization assay: Binding affinity to FKBP51 (FK1 domain) and FKBP52 (FK1 domain)

{"columns": ["MOLECULE", "CENSORING QUALIFIER", "IC50 (µM)"],
 "data": [
  ["COc1ccc(CC[C@@H](OC(=O)[C@@H]2CCCCN2C(=O)C(=O)c2cc(OC)c(OC)c(OC)c2)c2cccc(OCC(=O)O)c2)cc1OC", "=", 19.3],
  ["CCC(C)(C)C(=O)C(=O)N1CCC[C@H]1C(=O)O[C@H](CCc1ccc(OC)c(OC)c1)c1cccc(OCC(=O)O)c1 [Reference Example 4, reference compound]", "=", 51.5],
  ["O=C(C(=O)N1CCCCC1C(=O)OCCCc1ccccc1)c1ccccc1 (stereo not drawn) [Reference Example 7, reference compound]", ">", 100]
]}

* * *

- TARGET SYSTEM: FKBP52 (FK1 domain) (Homo sapiens)
- Sequence (Q02790 50-138 limits assumed): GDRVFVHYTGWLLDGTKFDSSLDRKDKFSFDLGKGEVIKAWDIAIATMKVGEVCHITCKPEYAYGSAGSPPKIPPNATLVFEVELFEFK
- ASSAY PROTOCOL: Fluorescence polarization assay, binding affinity to FKBP52 (FK1 domain)
- EXPERIMENTAL SETUP: fluorescence polarization assay using tracer 2b; listed as 1*; read-out: FKBP52FK1 IC50

{"columns": ["CHEMICAL SMILES", "TARGET SYSTEM", "IC50 (µM)"],
 "data": [
  ["COc1ccc(CC[C@@H](OC(=O)[C@@H]2CCCCN2C(=O)C(=O)[C@]2(O)CCCC[C@H]2C)c2cccc(OCC(=O)O)c2)cc1OC", "FKBP52 (FK1 domain) (Homo sapiens)", 2.13]
]}

* * *

- TARGET SYSTEM: FKBP51 (FK1 domain) (Homo sapiens, UniProt Q13451)
- ASSAY PROTOCOL: Fluorescence polarization assay, binding affinity to FKBP51 (FK1 domain)
- EXPERIMENTAL SETUP: fluorescence polarization assay using tracer 2b; listed as 1*; read-out: FKBP51FK1 IC50
pIC50: −log10 of the molar value.

{"columns": ["MOLECULE", "TARGET SYSTEM", "pIC50"],
 "data": [
  ["COc1ccc(CC[C@@H](OC(=O)[C@@H]2CCCCN2C(=O)C(=O)[C@]2(O)CCCC[C@H]2C)c2cccc(OCC(=O)O)c2)cc1OC [Compound 1]", "FKBP51 (FK1 domain) (Homo sapiens, UniProt Q13451)", 5.38]
]}

* * *

- TARGET SYSTEM: FKBP51 (FK1 domain) (Homo sapiens)
- ASSAY PROTOCOL: Fluorescence polarization assay, binding affinity to FKBP51 (FK1 domain)
- EXPERIMENTAL SETUP: fluorescence polarization assay using tracer 2b; read-out: FKBP51FK1 IC50
The entries below are paired with their reported IC50.
OUTCOME MEASURE: IC50

{"columns": ["COMPOUND", "ASSAY RESULT"],
 "data": [
  ["COc1ccc(OCCOC(=O)C2CCCCN2C(=O)C(=O)[C@]2(O)CCCC[C@H]2C)cc1OC (stereo partly drawn) [Reference Example 2*, reference compound]", "29.4 µM"],
  ["COc1ccc(CC[C@@H](OC(=O)[C@@H]2CCCCN2C(=O)C(=O)[C@]2(O)CCCC[C@H]2C)c2cccc(OCCN3CCOCC3)c2)cc1OC", "2.02 µM"],
  ["COc1ccc(CC[C@@H](OC(=O)[C@@H]2CCCCN2C(=O)C(=O)c2ccc(Oc3ccccc3)cc2)c2cccc(OCC(=O)O)c2)cc1OC", "2.83 µM"],
  ["COc1ccc(CC[C@@H](OC(=O)[C@@H]2CCCCN2C(=O)C(=O)c2cc(Cl)cc(Cl)c2)c2cccc(OCC(=O)O)c2)cc1OC", "4.1 µM"],
  ["COc1ccc(CC[C@@H](OC(=O)[C@@H]2CCCCN2C(=O)C(=O)[C@@]2(O)CCCC[C@@H]2C)c2cccc(OCC(=O)O)c2)cc1OC", "4.54 µM"],
  ["COc1ccc(CCOC(=O)C2CCCCN2C(=O)C(=O)[C@]2(O)CCCC[C@H]2C)cc1OC (stereo partly drawn) [Reference Example 1*, reference compound]", "> 100 µM"],
  ["CC[C@@H]1CCCC[C@@]1(O)C(=O)C(=O)N1CCCC[C@H]1C(=O)O[C@H](CCc1ccc(OC)c(OC)c1)c1cccc(OCCN2CCOCC2)c1", "9.66 µM"],
  ["COc1ccc(CC[C@@H](OC(=O)[C@@H]2CCCCN2C(=O)C(=O)C(C)(C)C)c2cccc(OCC(=O)O)c2)cc1OC [Reference Example 6, reference compound]", "38.4 µM"],
  ["CCC(C)(C)C(=O)C(=O)N1CC=CC[C@H]1C(=O)O[C@H](CCc1ccc(OC)c(OC)c1)c1cccc(OCC(=O)O)c1 [Reference Example 5, reference compound]", "32.7 µM"],
  ["COc1ccc(CC[C@@H](OC(=O)[C@@H]2CCCCN2C(=O)C(=O)[C@]2(O)CCCC[C@H]2C)c2cccc(OCC(=O)O)c2)cc1OC", "4.27 µM"],
  ["CC(C)C(C)(C)C(=O)C(=O)N1CCCC[C@H]1C(=O)O[C@H](CCc1ccccc1)c1ccccc1 [Reference Example 9, reference compound]", "55.6 µM"],
  ["COc1ccc(CC[C@@H](OC(=O)[C@@H]2CCCCN2C(=O)C(=O)[C@@]2(O)CCCC[C@H]2C)c2cccc(OCC(=O)O)c2)cc1OC", "4.96 µM"],
  ["COc1ccc(CC[C@@H](OC(=O)[C@@H]2CCCCN2C(=O)C(=O)C2(O)CCCCC2C)c2cccc(OCC(=O)O)c2)cc1OC (stereo in doubt)", "4.13 µM"],
  ["CC[C@@H]1CCCC[C@@]1(O)C(=O)C(=O)N1CCCCC1C(=O)OCCOc1ccc(OC)c(OC)c1 (stereo partly drawn) [Reference Example 3*, reference compound]", "> 100 µM"],
  ["COc1ccc(CC[C@@H](OC(=O)[C@@H]2CCCCN2C(=O)C(=O)[C@]2(O)CCCC[C@H]2CO)c2cccc(OCC(=O)O)c2)cc1OC", "8.5 µM"],
  ["COc1ccc(CC[C@@H](OC(=O)[C@@H]2CCCCN2C(=O)C(=O)C2CCCCC2)c2cccc(OCC(=O)O)c2)cc1OC", "15.2 µM"],
  ["COc1ccc(CC[C@@H](OC(=O)[C@@H]2CCCCN2C(=O)C(=O)[C@]2(O)CCCC[C@@H]2C)c2cccc(OCC(=O)O)c2)cc1OC", "4.18 µM"],
  ["CCC(C)(C)C(=O)C(=O)N1CCCC1C(=O)OC(CCc1ccccc1)c1ccccc1 (stereo not drawn) [Reference Example 8, reference compound]", "89.5 µM"]
]}

Provenance of the data: patent US20150018340A1
